// data source = paper PMC3769689

# METHOD SUMMARY: in vivo rat PK
# CONDITION DETAILS: plasma, ip, 10 mg/kg
REPORTED ENDPOINT: AUC(0-t)
Include the unit after the number when you answer.

Recorded AUC(0-t) for COc1ccc(C#Cc2ccc(C(=O)N3CCC[C@@H](O)C3)c(F)c2)cc1 , please?
33.1 µM·h

----------
# METHOD SUMMARY: in vivo rat PK
# CONDITION DETAILS: brain and plasma, ip, 10 mg/kg
REPORTED ENDPOINT: Kp
Please reply with the number alone, leaving off any unit.

Bench note: what Kp did COc1ccc(C#Cc2ccc(C(=O)N3CCC[C@@H](O)C3)c(F)c2)cc1 show?
0.3
